Target Or System: human sphingosine-1-phosphate receptor 1 (S1P1) (Homo sapiens)
Protocol Text: Inhibition of cAMP production (HTRF cAMP HiRange), S1P1 CHO-K1 cells
Assay type: cell-based
Condition Info: inhibition of cAMP production; potency; read-out: hS1P1 CAMP pEC50 (converted)
Sequence (P21453 whole entry): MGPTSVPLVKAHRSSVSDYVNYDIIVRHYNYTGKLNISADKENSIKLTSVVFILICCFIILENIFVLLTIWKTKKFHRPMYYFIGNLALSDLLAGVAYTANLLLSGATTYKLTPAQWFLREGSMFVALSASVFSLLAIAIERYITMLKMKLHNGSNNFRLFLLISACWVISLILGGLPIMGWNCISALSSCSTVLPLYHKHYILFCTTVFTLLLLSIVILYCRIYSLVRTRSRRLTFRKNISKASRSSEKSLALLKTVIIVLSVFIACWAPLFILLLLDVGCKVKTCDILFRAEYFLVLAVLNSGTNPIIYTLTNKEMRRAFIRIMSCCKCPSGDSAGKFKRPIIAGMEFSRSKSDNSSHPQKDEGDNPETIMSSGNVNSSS
Metric: EC50

INSERT INTO assay_data (smiles_record, metric, test_value) VALUES
  ('CC1(C)CCC2(CC1)CC(=O)c1cc(-c3nc(-c4cccnc4)no3)ccc1O2', 'EC50', '> 316 nM'),
  ('CCC1(CC)CC(=O)c2cc(-c3nc(-c4ccc5c(c4)nnn5C(C)C)ns3)ccc2O1', 'EC50', '> 316 nM'),
  ('CCC1(CC)CC(=O)c2cc(-c3nc(-c4ccc(S(N)(=O)=O)cc4)no3)ccc2O1', 'EC50', '< 316 nM'),
  ('c1ccc(Oc2ccc(-c3noc(-c4ccc5c(c4)nnn5C4CC4)n3)cc2)cc1', 'EC50', '> 316 nM'),
  ('CC(C)n1nnc2cc(-c3noc(C4CCOCC4)n3)ccc21', 'EC50', '> 316 nM'),
  ('CCC1(CC)CC(=O)c2cc(-c3nc(-c4cccnc4)no3)ccc2O1', 'EC50', '< 316 nM'),
  ('CCC1(CC)CC(=O)c2cc(-c3nc(-c4ccc5c(c4)nnn5C(C)C)no3)ccc2O1', 'EC50', '> 316 nM');

###

Target Or System: human sphingosine-1-phosphate receptor 1 (S1P1) (Homo sapiens)
Protocol Text: Inhibition of cAMP production (HTRF cAMP HiRange), S1P1 CHO-K1 cells
Format: cell-based
Condition Info: inhibition of cAMP production; potency; read-out: hS1P1 CAMP pEC50 (converted)
Metric: EC50

INSERT INTO measurements (molecule, test_value) VALUES
  ('N#Cc1cc(-c2nnc(-c3ccc4[nH]cnc4c3)o2)ccc1NCCF [Compound 358]', '< 316 nM'),
  ('Cc1ccc(-c2noc(-c3ccc4c(c3)nnn4C3CCCC3)n2)s1 [Compound 192]', '> 316 nM'),
  ('Cc1ccccc1-c1noc(-c2ccc3c(c2)nnn3C2CCC2)n1 [Compound 306]', '< 316 nM'),
  ('C=CCn1nnc2cc(-c3noc(-c4ccccc4Br)n3)ccc21 [Compound 42]', '> 316 nM'),
  ('Cc1cc(C)cc(-c2noc(-c3ccc4c(c3)nnn4C3CCCCC3)n2)c1 [Compound 158]', '> 316 nM'),
  ('Cc1ccsc1-c1noc(-c2ccc3c(c2)nnn3C2CCCC2)n1 [Compound 46]', '< 316 nM'),
  ('O=C1CC2(CCCCC2)Oc2ccc(-c3nc(-c4cccnc4)no3)cc21 [Compound 41]', '> 316 nM'),
  ('Clc1ncccc1-c1noc(-c2ccc3c(c2)nnn3C2CCCC2)n1 [Compound 198]', '< 316 nM'),
  ('Cc1ccccc1-c1noc(-c2ccc3c(c2)nnn3CC(C)C)n1 [Compound 96]', '< 316 nM'),
  ('COc1ccccc1-c1noc(-c2ccc3c(c2)nnn3C2CCOCC2)n1 [Compound 231]', '> 316 nM'),
  ('Brc1ccccc1-c1nc(-c2ccc3c(c2)nnn3Cc2cccnc2)no1 [Compound 283]', '> 316 nM'),
  ('CCC1(CC)CC(=O)c2cc(-c3nc(-c4ccc(OC)nc4)no3)ccc2O1 [Compound 301]', '> 316 nM'),
  ('CC(C)n1nnc2cc(-c3nc(-c4ccc(OCc5ccccc5)c(C(F)(F)F)c4)no3)ccc21 [Compound 296]', '> 316 nM'),
  ('CC(C)n1nnc2cc(-c3nc(-c4ccc(OCc5ccccc5)cc4)no3)ccc21 [Compound 53]', '> 316 nM');

###

Target Or System: human sphingosine-1-phosphate receptor 1 (S1P1) (Homo sapiens, UniProt P21453)
Protocol Text: Inhibition of cAMP production (HTRF cAMP HiRange), S1P1 CHO-K1 cells
Assay type: cell-based
Condition Info: CHO-K1; efficacy normalized to maximum efficacy of fingolimod; read-out: hS1P1 CAMP SPAN
Metric: Emax

INSERT INTO measurements (compound, test_value) VALUES
  ('Cc1ccncc1-c1noc(-c2ccc3c(c2)NC(=O)CN3)n1', '< 75%'),
  ('COc1ccccc1-c1noc(-c2cnc3c(c2)nnn3C(C)C)n1', '> 75%'),
  ('CCC1(CC)CC(=O)c2cc(-c3ncc(-c4ccncc4)cn3)ccc2O1', '< 75%'),
  ('CCC1(CC)CC(=O)c2cc(-c3ncc(-c4ccccc4OC)cn3)ccc2O1', '> 75%'),
  ('N#Cc1cc(-c2nc(-c3ccc4c(c3)NC(=O)C4)no2)ccc1NCC1CC1', '> 75%'),
  ('CCC1(CC)CC(=O)c2cc(-c3nc(-c4ccnc(S(N)(=O)=O)c4)no3)ccc2O1', '> 75%'),
  ('COc1cc(NC(C)=O)ccc1-c1noc(-c2ccc3nonc3c2)n1', '< 75%'),
  ('CN1C(=O)CCc2cc(-c3nc(-c4cccnc4)no3)ccc21', '> 75%'),
  ('CCC1(CC)CC(=O)c2cc(-c3nc(-c4cnccn4)no3)ccc2O1', '< 75%'),
  ('CC(C)n1nnc2cc(-c3noc(-c4cccc5c4CCC5O)n3)ccc21 (centres unmarked)', '> 75%'),
  ('CCC1(CC)CC(=O)c2cc(-c3nc(-c4ccc(C)nc4)no3)ccc2O1', '> 75%');

###

Target Or System: human sphingosine-1-phosphate receptor 1 (S1P1) (Homo sapiens)
Protocol Text: Inhibition of cAMP production (HTRF cAMP HiRange), S1P1 CHO-K1 cells
Type: cell-based
Condition Info: inhibition of cAMP production; potency; read-out: hS1P1 CAMP pEC50 (converted)
Metric: EC50

INSERT INTO results (compound, test_value) VALUES
  ('CC1(C)CC(=O)c2cc(-c3nc(-c4ccncc4)no3)ccc2O1 [Compound 291]', '> 316 nM'),
  ('Cc1ccc(-c2noc(-c3ccc4c(c3)nnn4C3CC3)n2)cn1 [Compound 87]', '> 316 nM'),
  ('C=CCNc1ccc(-c2nc(-c3ccc(NS(C)(=O)=O)cc3)no2)cc1C#N [Compound 149]', '< 316 nM'),
  ('CC(C)n1ccc2cc(-c3nc(-c4ccccc4O)no3)ccc21 [Compound 323]', '> 316 nM');

###

Measured Emax of individual entries
Target Or System: human sphingosine-1-phosphate receptor 1 (S1P1) (Homo sapiens)
Protocol Text: β-Arrestin2 recruitment assay (PathHunter), S1P1 CHO-K1 cells
Type: cell-based
Condition Info: CHO-K1; efficacy normalized to maximum efficacy of fingolimod; read-out: hS1P1 B-arrestin2 SPAN
Sequence (P21453 whole entry): as above
Sequence (P32121 whole entry partner): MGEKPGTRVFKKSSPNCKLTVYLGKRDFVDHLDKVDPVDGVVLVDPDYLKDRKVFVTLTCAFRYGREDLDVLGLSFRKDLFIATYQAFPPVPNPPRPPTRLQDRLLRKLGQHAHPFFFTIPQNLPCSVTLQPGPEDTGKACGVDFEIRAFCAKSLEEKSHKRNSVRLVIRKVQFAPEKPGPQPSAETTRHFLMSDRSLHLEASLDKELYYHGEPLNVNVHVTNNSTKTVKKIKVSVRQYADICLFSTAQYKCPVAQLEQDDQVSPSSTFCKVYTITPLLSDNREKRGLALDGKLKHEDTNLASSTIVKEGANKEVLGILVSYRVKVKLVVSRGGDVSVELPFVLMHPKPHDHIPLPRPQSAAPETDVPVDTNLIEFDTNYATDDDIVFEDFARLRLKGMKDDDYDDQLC
Metric: Emax

INSERT INTO results (molecule, metric, test_value) VALUES
  ('CCC1(CC)CC(=O)c2cc(-c3nc(-c4ccc(NS(C)(=O)=O)cc4OC)no3)ccc2O1', 'Emax', '> 75%'),
  ('CC1(C)Oc2ccc(-c3nc(-c4ccncc4)no3)cc2C1=O', 'Emax', '< 75%'),
  ('O=C1c2cc(-c3nc(-c4cccnc4)no3)ccc2OC(CO)(CO)C1Br (stereo not drawn)', 'Emax', '< 75%'),
  ('CCC1(CC)CC(=O)c2cc(-c3nc(-c4ccsc4)no3)ccc2O1', 'Emax', '> 75%'),
  ('CCC1CC(=O)c2ccc(-c3nc(-c4ccncc4)no3)cc2O1 (stereo not drawn)', 'Emax', '> 75%'),
  ('CCC1(CC)CC(=O)c2cc(-c3nc(-c4cccs4)no3)ccc2N1', 'Emax', '> 75%'),
  ('Cc1ccsc1-c1nc(-c2ccc3c(c2)nnn3CC(C)(C)CO)no1', 'Emax', '< 75%'),
  ('CCC1(CC)CC(=O)c2cc(-c3nc(-c4ccc5cnccc5c4)no3)ccc2O1', 'Emax', '> 75%'),
  ('O=C1CNc2ccc(-c3nc(-c4cccnc4)no3)cc2N1', 'Emax', '< 75%'),
  ('CC(C)n1ccc2cc(-c3noc(-c4ccncc4)n3)ccc21', 'Emax', '> 75%'),
  ('CC(C)Nc1ccc(-c2nc(-c3ccc4c(c3)NC(=O)C4)no2)cc1C#N', 'Emax', '> 75%'),
  ('CCC1(CC)CC(=O)c2cc(-c3nc(-c4sccc4OC)no3)ccc2O1', 'Emax', '> 75%');

###

Target Or System: human sphingosine-1-phosphate receptor 1 (S1P1) (Homo sapiens)
Protocol Text: β-Arrestin2 recruitment assay (PathHunter), S1P1 CHO-K1 cells
Assay type: cell-based
Condition Info: β-arrestin2 recruitment, S1P1; read-out: hS1P1 B-arrestin2 pEC50 (converted)
Metric: EC50

INSERT INTO results (compound, metric, test_value) VALUES
  ('CCC1(CC)CC(=O)c2cc(-c3nc(-c4ncccn4)no3)ccc2O1 [Compound 640]', 'EC50', '> 10 µM'),
  ('Cc1nc2cc(-c3nc(-c4ccc5c(c4)nnn5C(C)C)no3)ccc2[nH]1 [Compound 571]', 'EC50', '< 10 µM'),
  ('CC(C)n1nnc2cc(-c3cc(-c4ccccc4F)c[nH]3)ccc21 [Compound 542]', 'EC50', '< 10 µM'),
  ('CCC1CC(=O)c2ccc(-c3nc(-c4ccncc4)no3)cc2O1 (stereo not drawn) [Compound 589]', 'EC50', '> 10 µM'),
  ('CCC1(CC)CC(=O)c2cc(-c3nc(-c4ccnc(C(N)=O)c4)no3)ccc2O1 [Compound 555]', 'EC50', '< 10 µM'),
  ('COc1cccc(-c2csc(-c3ccc4c(ccn4C(C)C)n3)n2)c1 [Compound 410]', 'EC50', '> 10 µM'),
  ('CCC1(CC)CC(=O)c2cc(-c3nc(-c4ccncn4)no3)ccc2O1 [Compound 639]', 'EC50', '> 10 µM'),
  ('N#Cc1cc(-c2nnc(-c3ccc4[nH]c(=O)oc4c3)o2)ccc1NCCF [Compound 487]', 'EC50', '< 10 µM'),
  ('COc1ccccc1-c1c[nH]c(-c2ccc3c(c2)nnn3C(C)C)c1 [Compound 566]', 'EC50', '> 10 µM');
